Value source: patent US20200087373A1

Biological target: T1, human GIP receptor (human, UniProt P48546 22-466)
T1 construct: whole, on cells; also called hGIPR
T1 sequence (looked up): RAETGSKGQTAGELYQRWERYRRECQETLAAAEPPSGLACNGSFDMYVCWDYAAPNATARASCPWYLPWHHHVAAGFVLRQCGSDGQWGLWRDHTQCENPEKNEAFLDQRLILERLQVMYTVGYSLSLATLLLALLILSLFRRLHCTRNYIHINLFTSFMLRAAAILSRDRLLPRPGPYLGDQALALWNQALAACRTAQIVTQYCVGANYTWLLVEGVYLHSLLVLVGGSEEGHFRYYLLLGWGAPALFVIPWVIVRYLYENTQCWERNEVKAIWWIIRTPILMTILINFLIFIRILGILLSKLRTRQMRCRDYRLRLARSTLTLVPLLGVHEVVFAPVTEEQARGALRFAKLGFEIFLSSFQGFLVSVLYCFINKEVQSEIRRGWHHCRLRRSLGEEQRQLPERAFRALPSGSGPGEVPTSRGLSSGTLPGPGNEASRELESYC
Assay: 125I-hGIP competition binding, COS-7 cells expressing hGIPR;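 note: nonspecific binding taken as radioligand bound by untransfected cells, binding buffer with or without 2% HSA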
pIC50: −log10 of the molar value. Ends that are not written are not given here. * marks the point of attachment. Myristoyl = CCCCCCCCCCCCCC(=O)*; Lauroyl = CCCCCCCCCCCC(=O)*
Record Fulfilled whenever pIC50 is at 7 or higher; record Not fulfilled when lower.

1. Myristoyl-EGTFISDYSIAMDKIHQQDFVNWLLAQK-NH2 [AT110 [hGIP(3-30)NH2-C14/3]]	Fulfilled
2. Lauroyl-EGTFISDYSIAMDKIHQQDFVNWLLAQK-NH2 (printed with the same formula as AT101 but a different ID and different values) [AT148 [hGIP(3-30)NH2-C12/3]]	Fulfilled
3. EGTFISDYSIAMDK(Lauroyl)IHQQDFVNWLLAQK-NH2 (printed with the same formula as AT102 but a different ID and different values) [AT154 [hGIP(3-30)NH2-C12/16]]	Fulfilled
4. {C18 fatty acyl}-TFISDYSIAMDKIHQQDFVNWLLAQK-NH2 [AT127 [hGIP(5-30)NH2-C18/5]]	Not fulfilled
5. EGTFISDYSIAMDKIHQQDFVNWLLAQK(Lauroyl)-NH2 [AT103 [hGIP(3-30)NH2-C12/30]]	Not fulfilled
6. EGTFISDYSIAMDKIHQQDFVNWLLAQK(Myristoyl)-NH2 [AT112 [hGIP(3-30)NH2-C14/30]]	Not fulfilled
